- Assay Notes: In vivo tissue distribution test
- Design: species or system ICR mice
- Test Settings: mouse, plasma, po; ICR mice, p.o. 100 mg/kg, 3 hr; read-out: Plasma concentration
Outcome Measure: concentration at 3 h (ng/mL)
Numbers only, in ng/mL.

Molecule: CO/N=C1/CN(c2nc3c(cc2F)c(=O)c(C(=O)O)cn3C2CC2)C[C@@]1(C)CN [L-aspartate (Example 1)]
concentration at 3 h (ng/mL): 6300

Challenge: Would you kindly share the measured concentration at 3 h for CON=C1CN(c2nc3c(cc2F)c(=O)c(C(=O)O)cn3C2CC2)C[C@@]1(C)CN.Cl [Hydrochloride (Comparative Example 3)] ?
Response given: 6240

###

- Assay Notes: In vivo tissue distribution test
- Set-up: species or system ICR mice
- Test Settings: mouse, spleen, po; ICR mice, p.o. 100 mg/kg, 1.5 hr; read-out: Spleen concentration
- Description: An in vivo tissue distribution test was performed in order to confirm the degree of drug distribution of the L-aspartate and hydrochloride according to the present invention in each organ. After 8-week-old ICR mice were purchased and adapted in the laboratory, each salt was orally administered to the mouse at a dose of 100 mg/kg. […] Then, P ratio is a ratio of permeation into muscle and calculated as intramuscular AUC/intraplasmic AUC.
Outcome Measure: concentration at 1.5 hr (ng/g)
Answers are plain numbers, in ng/g.

Compound: CON=C1CN(c2nc3c(cc2F)c(=O)c(C(=O)O)cn3C2CC2)C[C@@]1(C)CN.Cl [Hydrochloride (Comparative Example 3)]
Number: 107000

Now take the following compound into account.
Challenge: Entry under review: CO/N=C1/CN(c2nc3c(cc2F)c(=O)c(C(=O)O)cn3C2CC2)C[C@@]1(C)CN [L-aspartate (Example 1)] . Reported concentration at 1.5 hr?
Response given: 84900

###

- Assay Notes: In vivo tissue distribution test
- Parameters: species or system ICR mice
- Test Settings: mouse, kidney, po; ICR mice, p.o. 100 mg/kg, 5 hr; read-out: Kidney concentration
What concentration at 5 h was measured for each of the following?
One number for each entry, in ng/g.

Compound: CO/N=C1/CN(c2nc3c(cc2F)c(=O)c(C(=O)O)cn3C2CC2)C[C@@]1(C)CN [L-aspartate (Example 1)]
Unit Abbreviation: ng/g
Number: 34000

Kindly review the next compound as well.
Challenge: Could you tell me which concentration at 5 h is on file for CON=C1CN(c2nc3c(cc2F)c(=O)c(C(=O)O)cn3C2CC2)C[C@@]1(C)CN.Cl [Hydrochloride (Comparative Example 3)] ?
Response given: 32800

###

- Assay Notes: In vivo tissue distribution test
- Set-up: species or system ICR mice
- Test Settings: mouse, testicle, po; ICR mice, p.o. 100 mg/kg, 3 hr; read-out: Testicle concentration
Outcome Measure: concentration at 3 h (ng/g)
Give bare numbers, in ng/g.

Molecule: CON=C1CN(c2nc3c(cc2F)c(=O)c(C(=O)O)cn3C2CC2)C[C@@]1(C)CN.Cl [Hydrochloride (Comparative Example 3)]
Outcome Measure: concentration at 3 h
Number: 14200

Then there is this molecule:
Challenge: Which concentration at 3 h is reported for this molecule? CO/N=C1/CN(c2nc3c(cc2F)c(=O)c(C(=O)O)cn3C2CC2)C[C@@]1(C)CN [L-aspartate (Example 1)]
Response given: 14800

Where these numbers come from: patent US9751840B2
